# experimentalTarget: Voltage-gated potassium channel subunit beta-2 (Rattus norvegicus) (UniProt P62483)
# Sequence (P62483 whole entry, looked up): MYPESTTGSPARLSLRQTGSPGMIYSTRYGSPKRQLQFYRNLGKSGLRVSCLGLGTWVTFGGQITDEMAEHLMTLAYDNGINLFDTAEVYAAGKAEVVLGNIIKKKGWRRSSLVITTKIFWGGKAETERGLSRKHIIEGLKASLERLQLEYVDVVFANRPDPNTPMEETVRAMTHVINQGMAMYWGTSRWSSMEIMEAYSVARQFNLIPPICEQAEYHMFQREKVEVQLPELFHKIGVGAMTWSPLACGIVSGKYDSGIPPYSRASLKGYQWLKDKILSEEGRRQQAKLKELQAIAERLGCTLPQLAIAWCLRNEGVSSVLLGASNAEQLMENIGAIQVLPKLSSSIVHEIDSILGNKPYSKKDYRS
# testDetails: enhancers of rat Kvbeta2 NADPH turnover – biochemical, NADPH fluorescence, primary screen (AID 623);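 further: fluorescence intensity change per second fitted from 20 to 320 s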
# measurementSetup: Recombinant KvBeta, NADPH fluorescence decrease slope, 10 min; at 10 µM; stronger effect = lower value
assayReadout: NADPH fluorescence slope
Write no unit; give the number alone.

Use these answered entries as a reference point.
COc1ccc(-c2coc3cc(O)cc(O)c3c2=O)cc1: -4.1e-06
CCOC(=O)N1CCC(NC(=O)CCc2c(C)nc3c(c(C)nn3C(C)(C)C)c2C)CC1: 3.3e-05
N#CC1=C(N)N(c2ccccc2)C2=C(C(=O)CCC2)C1c1cccs1 (stereo not drawn): -4.2e-05
O=c1c2ccccc2nc(-c2cccc(Cl)c2)n1O: -3.1e-05
CCn1nnc(-c2ccccc2NC(=O)c2ccc(-n3cnnn3)cc2)n1: -0.000135

State, in one line, measured NADPH fluorescence slope of "CCNC(=O)CC(=O)Nc1ccccc1C(=O)O"
-2.6e-05

State, in one line, measured NADPH fluorescence slope of CCOc1cc(C2C(C#N)=C(N)OC(C)=C2C(C)=O)cc(Br)c1O (stereo not drawn)
-2.9e-05

State, in one line, measured NADPH fluorescence slope of "CCN(CC)CCNC(=O)c1ccc(N)cc1"
-0.000102

----------
# testDetails: inhibitors of TNFa-induced NFkB p65 translocation, primary screen, imaging, HUVEC, MLSMR starter and 10KST1 sets (AID 438);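 further: compound added about 3h40 before a 20 min TNFalpha stimulation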
# measurementSetup: HUVEC TNFa-induced p65 nuclear translocation; measured here: nuclei count (cytotoxicity indicator), at 2.08 µM
Categorize each record by its cell count using bin 1 (below 300), bin 2 (300 to below 600), bin 3 (600 or more)

Some entries whose results are on file:
Cc1ccc(OC(=O)CCc2c(C)nc3ncnn3c2C)cc1: bin 3
COCCn1c(SCC(=O)c2ccccc2)nc2c(c1=O)SC(C)C2 (stereo not drawn): bin 1
COc1ccccc1CNC(=O)C1CCN(S(=O)(=O)N2CCCCC2)CC1: bin 2
CS(=O)(=O)Nc1ccc(C(=O)NCc2ccc3c(c2)OCO3)cc1: bin 2
CCn1c(=N)n(CC(O)COc2cccc(C)c2)c2ccccc21 (stereo not drawn): bin 1

Hi, small favor: classify "CC(=O)Nc1ccc(S(=O)(=O)N2CCN(Cc3ccncc3)CC2)cc1" by its cell count when you get a moment.
bin 3

Hi, small favor: classify "CCn1c(CCNC(=O)c2ccc(OC)c(OC)c2)nc2ccccc21" by its cell count when you get a moment.
bin 1

Hi, small favor: classify c1nc(NCC2CCCO2)c2[nH]cnc2n1 (stereo not drawn) by its cell count when you get a moment.
bin 2

Hi, small favor: classify "O=C(c1noc2c1CCc1ccccc1-2)N1CCOCC1" by its cell count when you get a moment.
bin 1

Hi, small favor: classify "COc1ccc(-c2nn3c(-c4ccncc4)nnc3s2)cc1OC" by its cell count when you get a moment.
bin 2

----------
# testDetails: Primary imaging screen for DUSP6 inhibitors that restore phospho-Erk in transfected HeLa cells, chemical complementation (AID 609)
# measurementSetup: HeLa MKP-3 transfected, phospho-Erk imaging KS statistic; measured here: nuclear pErk red intensity z-score; at 10 µM; stronger effect = higher value; cells stimulated with TPA for 15 min
Kind request: treat 0.05 as inclusive, so z-score at 0.05 or higher is True, anything lower is False.

Some entries whose results are on file:
CC(C)(C#N)C(C)(C)c1nn[nH]n1: False
COc1cc(C)nc(Oc2ccc(=O)[nH]n2)n1: False
Cc1cc(C(C)(C)C)c(O)c(C)c1CC1=NCCN1: False
CC1(C)S[C@@H]2[C@H](NC(=O)Cc3ccccc3)C(=O)N2[C@H]1C(=O)O: False
CC(=O)O[C@]1(C(C)=O)CC[C@H]2[C@@H]3C=C(Cl)C4=CC(=O)CC[C@]4(C)[C@H]3CC[C@@]21C: False

Reported z-score reaches at least 0.05 for "CN1CCN(C2=Nc3cc(Cl)ccc3Nc3ccccc32)CC1" ?
True

Reported z-score reaches at least 0.05 for CC(C)NCC(O)COc1ccc(CC(N)=O)cc1 (configuration not stated) ?
False

----------
# testDetails: reduction of polyQ htt aggregates in cells – imaging, exon1htt(103Q)mCFP cells, high-content imaging, primary screen (AID 483);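 further: compound exposure lasted 3 days before fixation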;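 on nuclei count: percent of the per-plate median nuclei count of sample wells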
# measurementSetup: exon1htt(103Q)mCFP cell line, aggregate imaging, at 2 µM; measured here: cell count, toxicity
assayReadout: nuclei count
Put down the number, then write its unit next to it.

O=C(C1CCC1)N1CCc2cc(S(=O)(=O)N3CCc4ccccc4C3)ccc21: 113%
O=C(CCNC(=O)Cn1ccc2ccccc2c1=O)NCCN1CCN(c2ccccc2F)CC1: 104%
CCOC(=O)c1cnn(-c2ncnc3c2cnn3Cc2ccccc2)c1N: 100%
COc1cc(C(=O)Nc2ccc3c(c2)C(=O)N(CCC(=O)O)C3=O)cc(OC)c1OC: 89.5%
CCCCn1cnc2c(cnn2-c2ccc(Cl)cc2)c1=O: 102%
CCn1cc(C(=O)NCCN(C)CCc2ccccc2)c(=O)c2cc(S(=O)(=O)N(C)C)ccc21: 118%
CCCCNC(=O)c1cc(-c2ccc(F)cc2)on1: 106%
CN(CC(O)COCc1cccs1)C1CCCCC1 (stereo unspecified): 95.2%
CC(C)=CC/C=C1\CCC(C(=O)O)C(C(=O)O)C1 (stereo unspecified): 116%
CCCCNC(=O)c1c(C)cc(=O)oc1C: 141%

Shift focus to the following entry.
State, in one line, measured nuclei count of "O=C(OCC(=O)c1c[nH]c2ccccc12)C1=COCCO1"
100%

----------
# testDetails: endothelial E-selectin expression blockers – imaging, HUVEC, immunofluorescence, MLSMR starter and 10KST1 sets, primary screen (AID 487);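 further: 100% = median nuclei count of all wells on the same plate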
# measurementSetup: HUVEC TNFalpha-induced E-selectin immunofluorescence imaging, at 2 µM; measured here: cell number, toxicity
assayReadout: nuclei count (%)
State just the number; it will be interpreted in %.

Use these answered entries as a reference point.
O=C(Cn1nnc(-c2cccc(C(F)(F)F)c2)n1)NC(=O)NCc1ccco1: 101
CC1CCN(S(=O)(=O)c2ccc(S(=O)(=O)NCC(=O)C(C)(C)C)cc2)CC1: 166
CC1(C)CC(=O)C=C(NCCO)C1: 146
Cc1nnc(N(Cc2ccco2)C(=O)c2cccc(C#N)c2)s1: 111
N#Cc1cn(CC(=O)N2CCCC2)c2ccccc12: 95.9
Cc1cc(SCC(N)=O)nc(SCC(=O)c2ccccc2)n1: 91.6

State, in one line, measured nuclei count of Cc1cc(C)c(NC(=O)C2CCCN2CCO)c(C)c1 (centres undefined)
84.4

State, in one line, measured nuclei count of "CC(C)(C)C(=O)Oc1cc(N)n(S(=O)(=O)c2ccccc2)n1"
129

State, in one line, measured nuclei count of "O=C(N1CCCCCC1)N1CCN(S(=O)(=O)N2CCCCC2)CC1"
126

----------
Entries and their inhibition of aggregation
# testDetails: reduction of polyQ htt aggregates in cells – imaging, exon1htt(103Q)mCFP cells, high-content imaging, primary screen (AID 483);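 further: compound exposure lasted 3 days before fixation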
# measurementSetup: exon1htt(103Q)mCFP cell line, aggregate imaging, at 2 µM; stronger effect = higher value
State just the number; it will be interpreted in %.

State, in one line, measured inhibition of aggregation of "CC(=O)OC[C@H]1O[C@@H](n2ncc(=O)[nH]c2=O)[C@H](OC(C)=O)[C@@H]1OC(C)=O"
14.3

State, in one line, measured inhibition of aggregation of COc1cc2c(cc1OC)C(c1cc(OC)c(OC)c(OC)c1)NCC2 (stereo not given)
10.4

State, in one line, measured inhibition of aggregation of "COc1cc(C2Nc3cccc4cccc(c34)N2)cc(OC)c1O"
29.3

State, in one line, measured inhibition of aggregation of CCOc1cc(C2c3c(n[nH]c3C)C(=O)N2c2ccc(Br)cc2)ccc1O (stereo not given)
7.8

State, in one line, measured inhibition of aggregation of "COCCCNC(=O)CCc1nc2cccnc2n1Cc1ccc(OC)cc1"
-13.4

----------
# experimentalTarget: Voltage-gated potassium channel subunit beta-2 (Rattus norvegicus) (UniProt P62483)
# testDetails: enhancers of rat Kvbeta2 NADPH turnover – biochemical, NADPH fluorescence, primary screen (AID 623);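 further: fluorescence intensity change per second fitted from 20 to 320 s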
# measurementSetup: Recombinant KvBeta, NADPH fluorescence decrease slope, 10 min; at 10 µM; stronger effect = lower value
assayReadout: NADPH fluorescence slope
Write no unit; give the number alone.

Use these answered entries as a reference point.
O=C(CCCn1c(=O)c2sccc2n(Cc2ccc(F)cc2)c1=O)NCc1ccco1: -2.1e-06
Cn1c(=O)c(-c2ccccc2)nn2c3ccccc3nc12: 4.4e-07
CCOC(=O)N1CCN(C(=O)C(NS(=O)(=O)c2cccc3nsnc23)c2ccccc2)CC1 (stereo not drawn): 1.3e-05
CCc1nccn1S(=O)(=O)c1ccc2ccc(C)cc2c1: 1.6e-05
O=P(O)(O)c1ccccc1OCCOCCOc1ccccc1P(=O)(O)O: -5.3e-05

State, in one line, measured NADPH fluorescence slope of "COc1cccc(NC(=O)Nc2cccs2)c1"
0.00014

State, in one line, measured NADPH fluorescence slope of Cc1ccc(C2CC(c3cccc(Br)c3)Nc3nnnn32)cc1 (stereo not drawn)
1.4e-05

State, in one line, measured NADPH fluorescence slope of "CC(=O)O[C@]1(C(C)=O)CC[C@H]2[C@@H]3C=C(Cl)C4=CC(=O)CC[C@]4(C)[C@H]3CC[C@@]21C"
-6.7e-05
